test: Caspase-3/7 induction in CHO-K1 cells by small molecules, qHTS cell viability counter screen (AID 1346979); conditions: CellTiter-Fluor fluorescence, 17 h; series mostly up to 92.4 µM; note: nearly all actives have a fitted effect of over 35% in size
Records with an inconclusive call do not appear. The source made the active and inactive calls. Calls come from the whole dose curve; as a rule, active = well fitted cell-killing curve with a large enough effect in the repeat runs; inconclusive = weak or mixed curves, or effect the other way; inactive = no such curve, though single readings can be large or run the other way.
Labels: active, inactive

- compound: "OC/C=C/CO"
  label-value: "inactive"
- compound: "O=C1NC(=O)[C@@H]2CC=CC[C@H]12"
  label-value: "inactive"
- compound: "CC(C)NC[C@@H](O)COc1ccc(CC(N)=O)cc1"
  label-value: "inactive"
- compound: "CC[N+](CC)(CC)CCOc1ccc(/C=C/c2ccccc2)cc1"
  label-value: "inactive"
- compound: "CCCCCc1ccc(Cl)cc1"
  label-value: "inactive"
- compound: "CCCC1CCC(=O)CC1"
  label-value: "inactive"
- compound: "C[Si](Cl)(c1ccccc1)c1ccccc1"
  label-value: "inactive"
- compound: "CCCCCCCC"
  label-value: "inactive"
- compound: "CCCCC/C=C\\C/C=C\\CCCCCCCC(=O)O"
  label-value: "active"
- compound: "Cc1cc(C(C)(C)C)cc(C)c1CC1=NCCN1"
  label-value: "inactive"
- compound: "O=C(O)CCN(C1(C(=O)NO)CCCC1)S(=O)(=O)c1ccc(Oc2ccc(F)cc2)cc1"
  label-value: "inactive"
- compound: "COc1cc(C)ccc1O"
  label-value: "inactive"
- compound: "CC(=O)CC(=O)Nc1ccc(S(=O)(=O)O)cc1"
  label-value: "inactive"
- compound: "NC(=O)c1cccc([N+](=O)[O-])c1"
  label-value: "inactive"
- compound: "CC(N=C(NC#N)Nc1ccncc1)C(C)(C)C (configuration not stated)"
  label-value: "inactive"
- compound: "CC(CO)Oc1ccccc1 (configuration not stated)"
  label-value: "inactive"
- compound: "CN1CCC[C@@H]1CCO[C@](C)(c1ccccc1)c1ccc(Cl)cc1"
  label-value: "active"
- compound: "OC1CCCc2ccccc21 (configuration not stated)"
  label-value: "inactive"
- compound: "CC(C)CCOC(=O)/C=C/c1ccccc1"
  label-value: "inactive"
- compound: "O=C(O)Cc1ccccc1Nc1c(Cl)cccc1Cl"
  label-value: "inactive"
- compound: "CC(C)CCCCCOC(=O)CCS"
  label-value: "inactive"
- compound: "CC(C)(c1cc(Br)c(OCC(Br)CBr)c(Br)c1)c1cc(Br)c(OCC(Br)CBr)c(Br)c1 (configuration not stated)"
  label-value: "inactive"
- compound: "CC1(C)CCC[C@]2(C)[C@H]3CCO[C@]3(C)CC[C@@H]12"
  label-value: "inactive"
- compound: "CC(C)=CCC1=C(O)c2ccccc2C(=O)C1=O"
  label-value: "active"
- compound: "COCCOc1cc2cc(C(=O)NC3CCN(C(C)C)CC3)n(CC(=O)Nc3ccc(Cl)cn3)c2cn1"
  label-value: "inactive"
- compound: "CCC(COC(=O)CCS)(COC(=O)CCS)COC(=O)CCS"
  label-value: "inactive"
- compound: "O=c1[nH]c(=O)n([C@H]2C[C@H](O)[C@@H](CO)O2)cc1F"
  label-value: "inactive"

----------
Assay: A CellTox Green Cytotoxicity Assay to monitor cytotoxicity in HEK293 cells - 24 hour (AID 1224875); note: nearly all actives have a fitted effect of over 45% in size
Details: CellTox Green fluorescence; series mostly up to 76.8 µM
Description: National Center for Advancing Translational Sciences [NCATS] NIH Chemical Genomics Center [NCGC] U.S. Environmental Protection Agency [EPA] National Institutes of Environmental Health Sciences [NIEHS] National Toxicology Program [NTP] Cell-based models are critical for drug discovery. […] Viable cells produce no appreciable increases in fluorescence. Therefore, the fluorescence signal produced by the binding interaction with dead cell DNA is proportional to cytotoxicity. […]
Inconclusive results are not listed. Activity calls are given as the source filed them. Calls come from the whole dose curve; as a rule, active = well fitted activation curve with a large enough effect in the repeat runs; inconclusive = weak or mixed curves; inactive = flat fitted curve, though single readings scatter.

- compound: "CC(CCc1ccccc1)NCC(O)c1ccc(O)c(C(N)=O)c1 (stereo unspecified)"
  outcome: "inactive"
- compound: "CCC(C)n1ncn(-c2ccc(N3CCN(c4ccc(OC[C@H]5CO[C@](Cn6cncn6)(c6ccc(Cl)cc6Cl)O5)cc4)CC3)cc2)c1=O (stereo partly specified)"
  outcome: "inactive"
- compound: "CCCCN(CCCC)CC(O)c1cc(Cl)cc2c1-c1ccc(Cl)cc1/C2=C/c1ccc(Cl)cc1 (stereo unspecified)"
  outcome: "inactive"
- compound: "CN1CCN(Cc2cc(-c3ccc4[nH]c(=O)oc4c3)co2)[C@@H](c2ccc(F)cc2)C1"
  outcome: "inactive"
- compound: "C=Cc1ccccc1C=C"
  outcome: "inactive"
- compound: "CC(N=C(NC#N)Nc1ccncc1)C(C)(C)C (stereo unspecified)"
  outcome: "inactive"

Source: PubChem BioAssay (Tox21)
